Where do the numbers come from? From the supplement of paper PMC12645437.

Molecular target: T1, CRBN, Q96SW2;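 further: pooled lentiviral library of zinc finger degron-EGFP fusions in mCherry-positive Jurkat cells, FACS-sorted after compound exposure, with degron abundance counted by next-generation sequencing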
T1 chain: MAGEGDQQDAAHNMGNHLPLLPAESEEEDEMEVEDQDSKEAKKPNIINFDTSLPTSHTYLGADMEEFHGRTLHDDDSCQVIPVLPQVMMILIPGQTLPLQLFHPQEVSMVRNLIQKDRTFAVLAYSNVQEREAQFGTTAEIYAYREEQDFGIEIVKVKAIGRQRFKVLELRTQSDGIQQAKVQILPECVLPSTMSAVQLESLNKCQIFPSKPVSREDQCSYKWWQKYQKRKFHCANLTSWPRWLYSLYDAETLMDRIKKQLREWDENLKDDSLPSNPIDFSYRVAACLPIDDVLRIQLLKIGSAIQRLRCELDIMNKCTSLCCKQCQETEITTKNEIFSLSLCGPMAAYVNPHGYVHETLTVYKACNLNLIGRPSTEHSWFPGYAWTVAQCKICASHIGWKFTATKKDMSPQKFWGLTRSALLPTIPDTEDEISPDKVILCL
Assay: log2 fold change of degron read counts, EGFP-low vs EGFP+ sorted cells (limma voom), compound-induced degradation; higher = more compound-induced degradation of the degron-EGFP fusion; degrons are variants of IKZF1/3 zinc finger 2; compound dose not given here
Conditions: Jurkat; 18 h; compound: compound 33 (diphenyl IMiD analogue)
The full ranking holds about 8,300 sequences; the median of “log2 fold change of degron read counts, EGFP-low vs EGFP+ sorted cells (limma voom), compound-induced degradation” is about -1.1, and the highest 2% start at about 3.2. The entries come from a sample that favours the highest values as a whole.
Field: log2 fold change of degron read counts. Provide a value for each of the sequences that follow.
One number for each entry.

# example entries with known answers
> print(dat)
                                   residues                                  metric  reported.value
1  FDCEVCGAKFTQKGNLLRHIKL [46F_47D_49E_50V_52G_53A_54K_55F_67L_, Q9UKT9]  log2 fold change of degron read counts           -2.09
2  FKCEVCGAKFTQKGNLLRHIKL [46F_47K_49E_50V_52G_53A_54K_55F_67L_, Q9UKT9]  log2 fold change of degron read counts           -3.54
3  FACEVCGAKFTQKGNLLRHIKL [46F_47A_49E_50V_52G_53A_54K_55F_67L_, Q9UKT9]  log2 fold change of degron read counts           -1.57

Continue with the sequence presented below.
Exam item: Item under review: FQCEVCGAKFTQKGNLLRHIKL [46F_47Q_49E_50V_52G_53A_54K_55F_67L_, Q9UKT9] . Reported log2 fold change of degron read counts?
Marked response: 0.135
